Recorded values, source patent US7880007B2.

- target-or-system: M2 muscarinic receptor (Homo sapiens)
- Construct: expressed in transfected cells; host or cells: CHO (M2-CHO)
- Sequence (P08172 whole entry): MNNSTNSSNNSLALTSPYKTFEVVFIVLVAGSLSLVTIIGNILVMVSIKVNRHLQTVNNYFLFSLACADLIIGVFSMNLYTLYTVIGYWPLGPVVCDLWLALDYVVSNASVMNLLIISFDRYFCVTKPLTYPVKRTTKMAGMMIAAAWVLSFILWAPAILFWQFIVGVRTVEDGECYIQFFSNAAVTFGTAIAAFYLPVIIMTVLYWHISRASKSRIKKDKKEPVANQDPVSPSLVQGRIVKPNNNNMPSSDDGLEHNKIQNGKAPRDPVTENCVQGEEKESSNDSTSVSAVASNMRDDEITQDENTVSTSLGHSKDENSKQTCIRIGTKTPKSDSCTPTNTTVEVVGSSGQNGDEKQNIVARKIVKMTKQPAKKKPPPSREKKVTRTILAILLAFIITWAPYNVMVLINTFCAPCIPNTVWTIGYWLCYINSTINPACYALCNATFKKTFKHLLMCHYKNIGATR
- protocol-summary: Functional mobilization of intracellular calcium (FLIPR), M2-CHO cells
- Type: cell-based
- test-conditions: 100% efficacy is the maximum response obtained with the Carbachol control
parameter: Emax

Qu. Param readout = Emax; param system = M2 muscarinic receptor (Homo sapiens); param query = CCOC(=O)N1C2CCC1CC(N1CCC(OC)(c3cc(Cl)ccc3OC)CC1)C2 (stereo not shown) ; response: value
Ans. < 25%

Qu. And for `COc1ccc(Cl)cc1C1(F)CCN(CC2CCOCC2)CC1` ?
Ans. < 25%

Qu. Continue with `CNC(=O)c1ccc(-c2ccc(OC)c(C3CCN([C@H]4C[C@H]5CC[C@H]4C5)CC3)c2)cc1`
Ans. < 25%

Qu. Lookup `COc1ccc(-c2ccc(NC(C)=O)cc2)cc1C1CCN([C@H]2C[C@H]3CC[C@H]2C3)CC1`
Ans. < 25%

Qu. Do the same for `C=Cc1ccc(OC)c(C2CCN([C@@H]3C[C@H]4CC[C@H]3C4)CC2)c1` please
Ans. < 25%

Qu. Param item: `COc1ccc(-c2ccc(C)cc2)cc1C1CCN([C@H]2C[C@H]3CC[C@H]2C3)CC1`
Ans. < 25%

Qu. Field entry: `CCOC(=O)N1CCC(CN2CCC(c3cc(-c4ccc(S(=O)(=O)N5CCCC5)cc4)ccc3OC)CC2)CC1`
Ans. < 25%

Qu. Also need `COc1cccc(-c2ccccc2C2CCN([C@H]3C[C@H]4CC[C@H]3C4)CC2)c1OC` , thanks.
Ans. < 25%

Qu. Next: `Cc1ccc(-c2ccccc2C2CCN([C@H]3C[C@H]4CC[C@H]3C4)CC2)c(C)c1`
Ans. < 25%

Qu. Please answer likewise for `COc1ccc(Cl)cc1C1(O)CCN(C[C@H]2C[C@H]3C=C[C@H]2C3)CC1`
Ans. 25 to 100%

Qu. Continue with `COc1ccc(C#CC2(O)CCCCC2)cc1C1CCN([C@@H]2C[C@H]3CC[C@H]2C3)CC1`
Ans. < 25%

Qu. Also, CCOC(=O)N1C2CCC1CC(N1CCC(c3cc(Cl)ccc3OC)CC1)C2 (stereo not shown) please.
Ans. 25 to 100%

Qu. For `COc1ccc(-c2ccc(OC)c(C3CCN([C@@H]4C[C@H]5CC[C@H]4C5)CC3)c2)cc1` then?
Ans. < 25%

Qu. Now give it for `Clc1cccc(-c2ccccc2C2CCN([C@H]3C[C@H]4CC[C@H]3C4)CC2)c1` too.
Ans. < 25%

Qu. Field entry: `COc1ccc(-c2ccc(C(N)=O)cc2)cc1C1CCN([C@H]2C[C@H]3CC[C@H]2C3)CC1`
Ans. < 25%

Qu. Next entry: CCOC(=O)N1C2CCC1CC(N1CCC(c3cc(-c4ccc5c(c4)OCO5)ccc3OC)CC1)C2 (stereo not shown)
Ans. < 25%

Qu. Please give the result for COc1ccccc1C1CCN(C2CC3CC[C@H]2C3)CC1 (stereo in doubt) too.
Ans. < 25%

Qu. Queued: `COc1ccc(Cl)cc1C1CCN(C2CCSCC2)CC1`
Ans. < 25%

Qu. Next: OC1(c2cc(Cl)cc(Cl)c2)CCN(C2C[C@H]3CC[C@H]2C3)CC1 (stereo partly shown)
Ans. < 25%

Qu. # iterate: `COc1ccc(-c2ccc3c(c2)OCO3)cc1C1CCN(C2CCCCC2)CC1`
Ans. < 25%

Qu. Can you check Cc1ccc(F)cc1C1CCN(CC2C[C@H]3CC[C@H]2C3)CC1 (stereo partly shown) next?
Ans. 25 to 100%

Qu. What would you report for `N#Cc1ccc(C2CCN(C3CCOCC3)CC2)cc1` ?
Ans. < 25%

Qu. Same lookup for COc1ccccc1C1CCN(C2CCC(OC(=O)c3ccccc3)CC2)CC1 (stereo not shown) , please.
Ans. < 25%

Qu. What about this molecule? `CCOC(=O)N1CCC(CN2CCC(c3ccccc3C(F)(F)F)CC2)CC1`
Ans. 25 to 100%

Qu. Moving on to the next molecule: `COc1ccc(-c2ccc(C(=O)NC3CC3)cc2)cc1C1CCN([C@H]2C[C@H]3CC[C@H]2C3)CC1`
Ans. < 25%

Qu. Next up: `COc1ccc(Cl)cc1C1CCN(C2(C)CCOCC2)CC1`
Ans. 25 to 100%

Qu. Record: Cc1ccc(F)cc1C1CCN(C2C[C@H]3CC[C@H](C2)C3)CC1 (stereo partly shown)
Ans. < 25%

Qu. Then `CCOC(=O)N1CCC(N2CCC(c3cc(Cl)ccc3OC)CC2)CC1` ?
Ans. 25 to 100%

Qu. Would you kindly repeat that for O=C(NCc1cccc(C2CCN(C3C[C@H]4CC[C@H]3C4)CC2)c1)C1CC1 (stereo partly shown) ?
Ans. < 25%

Qu. Also need `Fc1ccccc1C1CCN(C2CCOCC2)CC1` , thanks.
Ans. < 25%

Qu. Item: `Cc1ccc(F)cc1C1CCN([C@@H]2C[C@H]3CC[C@H]2C3)CC1`
Ans. 25 to 100%
